Tested on: bedstraw
ASSAY SUMMARY: Test B pre/postemergence bedstraw
Assay type: in vivo, Galium aparine
ASSAY SETUP: Rate 500 g/ha, Preemergence; scale 0 to 10 (0 no effect, 10 complete control)
MEASURE: Bedstraw plant response rating
The answer should be written as a number, with no unit following it.

molecule="C#CC(C)n1c(=O)on(C(=O)N(c2ccc(F)cc2)C(C)C)c1=O (stereo not drawn) [Compound 763]" measured_on=bedstraw assay_value=8
molecule="Cc1nc(C(C)n2c(=O)on(C(=O)N(c3ccccc3)C(C)C)c2=O)sc1C (stereo not drawn) [Compound 756]" measured_on=bedstraw assay_value=0
molecule="COP(=O)(CCn1c(=O)on(C(=O)N(c2ccc(F)cc2F)C(C)C)c1=O)OC [Compound 777]" measured_on=bedstraw assay_value=0
molecule="COCC(OC)n1c(=O)on(C(=O)N(c2ccc(Cl)cc2)C(C)C)c1=O (stereo not drawn) [Compound 726]" measured_on=bedstraw assay_value=0
molecule="C#CCn1c(=O)on(C(=O)N(c2ccc(F)cc2)C(C)C)c1=O [Compound 743]" measured_on=bedstraw assay_value=8

We next turn to a different molecule, shown below.
Memo: C#CCCn1c(=O)on(C(=O)N(c2ccc(F)cc2F)C(C)C)c1=O [Compound 744] , reported Bedstraw plant response rating: 8

Values compiled from patent US6737383B1.
